# Tested on: Human papillomavirus type 1a E7 protein (residues 1-88)
# experimentalProtocol: HPV1a E7 small-molecule binders, primary screen, biochemical, small-molecule microarray, residues 1-88, 635 nm (AID 1129)
# experimentalSetup: small-molecule microarray binding, fluorescence 635 nm; higher = more signal
Would you mind labelling by composite z-score? At or over 1 is 1.0, under is 0.0.

| compound | system | label |
| --- | --- | --- |
| O=C1O[C@@H](c2ccccc2)[C@@H](c2ccccc2)N2[C@@H](c3ccccc3OCCO)[C@]3(C(=O)Nc4ccc(C#CC5(O)CCCCCC5)cc43)[C@@H](C(=O)N3CCN(c4ncccn4)CC3)[C@H]12 | Human papillomavirus type 1a E7 protein (residues 1-88) | 1.0 |
| [N-]=[N+]=NCc1ccccc1[C@@H]1OC(c2ccc(OCCCO)cc2)=N[C@]1(CCS(=O)(=O)c1ccccc1)C(=O)N1CCCCC1 | Human papillomavirus type 1a E7 protein (residues 1-88) | 1.0 |
| O=C1C2C=CC(C(O)c3ccc(-c4ccccc4)s3)N(Nc3ccccc3)C2C(=O)N1c1ccccc1 (stereo unspecified) | Human papillomavirus type 1a E7 protein (residues 1-88) | 1.0 |
| COC(=O)[C@@]1(CCC(=O)OC(C)(C)C)N=C(c2ccc(OCCCO)cc2)O[C@H]1c1ccccc1 | Human papillomavirus type 1a E7 protein (residues 1-88) | 0.0 |
| COC(=O)[C@]1(Cc2ccccc2)N=C(c2ccc(OCCCO)cc2)O[C@@H]1c1ccccc1N=[N+]=[N-] | Human papillomavirus type 1a E7 protein (residues 1-88) | 1.0 |
| O[C@@H](Cc1ccccc1)[C@@H](/C=C/C1CC1)NCc1cccc(Cl)c1 | Human papillomavirus type 1a E7 protein (residues 1-88) | 0.0 |
| CN1CCC(CCCO)=CC1c1cccs1 (stereo unspecified) | Human papillomavirus type 1a E7 protein (residues 1-88) | 0.0 |
| COc1ccc([Si](C)(C)[C@@H]2[C@@H](CC(=O)N3Cc4ccccc4C[C@H]3CO)O[C@]3(C(=O)N(Cc4cccc(N5CCC5=O)c4)c4ccccc43)[C@H]2C)cc1 | Human papillomavirus type 1a E7 protein (residues 1-88) | 1.0 |
| COc1ccc(C(=O)Nc2ccc(CN3C(=O)[C@]4(O[C@H](CC(=O)N5CCC[C@H]5CO)[C@@H]([Si](C)(C)c5ccc(OC)cc5)[C@@H]4C)c4ccccc43)cc2)cc1 | Human papillomavirus type 1a E7 protein (residues 1-88) | 1.0 |
| OB1C=CCC(CCc2ccccc2)O1 (stereo unspecified) | Human papillomavirus type 1a E7 protein (residues 1-88) | 0.0 |
| C[N+](C)(C)CCCC[C@@H]1NC(=O)[C@@H]2C[C@H](C(=O)NCCCCCN)[C@H](c3ccc(O)cc3)N2C1=O | Human papillomavirus type 1a E7 protein (residues 1-88) | 1.0 |
| O=C(CS)NCCCCCNC(=O)[C@@H]1C[C@@H]2C(=O)NCC(=O)N2[C@@H]1c1cccc(OCCO)c1 | Human papillomavirus type 1a E7 protein (residues 1-88) | 0.0 |
| O=C(NCc1ccccc1)[C@@H]1c2ccccc2C(=O)N(C2Cc3ccccc3C2)[C@H]1c1ccc(CO)cc1 | Human papillomavirus type 1a E7 protein (residues 1-88) | 1.0 |
| COC(=O)c1c(CC[C@@H](CO)NC(=O)N[C@H](Cc2ccccc2)Cn2cc(-c3ccccn3)nn2)oc(C(C)=O)c1C(=O)OC | Human papillomavirus type 1a E7 protein (residues 1-88) | 0.0 |
